Data credit: ChEMBL document CHEMBL4364288

test system: A549; test: cells; format: functional, cell-based; conditions: Homo sapiens, A549, 72 h
pIC50: −log10 of the molar value.
Here the recorded pIC50 is given for each entry.

In the examples that follow, each entry is paired with its recorded pIC50.
- COMPOUND: "CC(=O)Nc1ccc(S(=O)(=O)Nc2cc(OCc3nnc(C)o3)cc3c2[nH]c2ccccc23)cc1"
  RECORDED_METRIC: "pIC50"
  RESULT: "< 4.00"
- COMPOUND: "Cc1ccc(S(=O)(=O)Nc2cc(OCC(=O)O)cc3c2[nH]c2ccccc23)cc1"
  RECORDED_METRIC: "pIC50"
  RESULT: "< 4.00"

Dear colleague, I am looking for the recorded pIC50 of the following compound: "Cc1ccc(S(=O)(=O)Nc2cc(SCC(=O)O)cc3c2[nH]c2ccccc23)cc1"
< 4.00

====

species: Homo sapiens; settings: at 20 µM
Description: Inhibition of GST-tagged MEK1/ERK2 (unknown origin) cascading pathway assessed as reduction in ERK2 phosphorylation at 20 uM incubated for 2 hrs by HTRF assay relative to control
Label scheme for inhibition: lower than 30% is criterion not met, 30% and above is criterion met.

- COMPOUND: "CC(=O)Nc1cccc(S(=O)(=O)Nc2cc(OCc3nnc(C)o3)cc3c2[nH]c2ccccc23)c1"
  CAT: "criterion not met"
- COMPOUND: "Cc1ccc(S(=O)(=O)Nc2cc(SCC(=O)O)c(O)c3ccccc23)cc1"
  CAT: "criterion met"
- COMPOUND: "N#CC(=C(/N)Sc1ccccc1N)/C(C#N)=C(\\N)Sc1ccccc1N"
  CAT: "criterion met"
- COMPOUND: "CCOC(=O)COc1cc(NS(=O)(=O)c2ccc(C)cc2)c2[nH]c3ccccc3c2c1"
  CAT: "criterion not met"

State whether the measured inhibition reaches 30%, counting equality as reaching it, for "CCOC(=O)CSc1cc(NS(=O)(=O)c2ccc(NC(C)=O)cc2)c2[nH]c3ccccc3c2c1"
criterion not met

// inclusive: inhibition at least 30%? input: "Cc1ccc(S(=O)(=O)Nc2cc(OCc3nnc(C)o3)cc3c2[nH]c2ccccc23)cc1"
criterion not met

Decide: is the reported value of inhibition for "Cc1ccc(S(=O)(=O)Nc2cc(S(=O)(=O)CC(=O)O)cc3c2[nH]c2ccccc23)cc1" equal to or greater than 30%?
criterion met

====

inhibition values for the molecules below.
species: Homo sapiens; settings: at 20 µM
The response must be a number in % with no trailing unit.

Look over these answered cases.
- COMPOUND: "CC(=O)Nc1ccc(S(=O)(=O)Nc2cc(OCc3nnc(C)o3)cc3c2[nH]c2ccccc23)cc1"
  inhibition, %: 20.6
- COMPOUND: "COc1cc(/C=C2\\C(=O)NN(c3ccc(I)cc3)C2=O)ccc1OC(C)=O"
  inhibition, %: 35

Next:
Find the recorded inhibition belonging to "Cc1ccc(S(=O)(=O)Nc2cc(OCc3nnc(N)o3)cc3c2[nH]c2ccccc23)cc1" and report it.
21.4

====

test system: Sf21; details: Homo sapiens, at 20 µM
Description: Inhibition of recombinant N-terminal GST-tagged human BRAF (433-726 residues) expressed in baculovirus infected sf21 insect cells/recombinant human full length N-terminal GST-tagged MEK1 expressed in Escherichia coli cascading pathway assessed as reduction in MEK1 phosphorylation at 20 uM incubated for 2 hrs by HTRF assay relative to control
RECORDED_METRIC: inhibition (%)
// return numeric value only (unit: %, not printed)

Below, 6 molecules whose answers are already recorded.
- COMPOUND: "Cc1ccc(S(=O)(=O)Nc2cc(SCC(=O)O)cc3c2[nH]c2ccccc23)cc1"
  inhibition, %: 67.2
- COMPOUND: "Cc1ccc(S(=O)(=O)Nc2cc(OCc3nnc(C)o3)cc3c2[nH]c2ccccc23)cc1"
  inhibition, %: 48.6
- COMPOUND: "Cc1ccc(S(=O)(=O)Nc2cc(OCC(=O)O)cc3c2[nH]c2ccccc23)cc1"
  inhibition, %: 65.8
- COMPOUND: "Cc1ccc(S(=O)(=O)Nc2cc(SCC(=O)O)c(O)c3c2[nH]c2ccccc23)cc1"
  inhibition, %: 43.7
- COMPOUND: "Cc1ccc(S(=O)(=O)Nc2cc(OCc3nc(C)no3)cc3c2[nH]c2ccccc23)cc1"
  inhibition, %: 38.2
- COMPOUND: "CCOC(=O)COc1cc(NS(=O)(=O)c2ccc(NC(C)=O)cc2)c2[nH]c3ccccc3c2c1"
  inhibition, %: 27.4

Looking for the measured inhibition of "CC(=O)Nc1ccc(S(=O)(=O)Nc2cc(SCC(=O)O)cc3c2[nH]c2ccccc23)cc1" , can you help?
44.2
